System: K562
method_description: Antiproliferative activity against human K562 cells assessed as reduction in cell growth incubated for 48 hrs by MTT assay
Format: functional, cell-based
test_settings: K562, 48 h
Hi there, I'd appreciate the recorded pIC50 for every entry that follows.
Reminder that pIC50 is minus the log10 of a molar concentration.

Req: Need pIC50, item `COc1cc([C@@H]2c3cc4c(cc3[C@H](n3cnc(C)c3)[C@H]3COC(=O)[C@H]23)OCO4)cc(OC)c1OC`
Resp: 5.06

Req: Can you look up the measured pIC50 of `COc1cc([C@@H]2c3cc4c(cc3[C@@H](n3cnc([N+](=O)[O-])c3)[C@H]3COC(=O)[C@H]23)OCO4)cc(OC)c1O` for me?
Resp: 5.13

Req: Could you share which pIC50 value was measured for `COc1cc([C@@H]2c3cc4c(cc3[C@@H](n3ccnc3)[C@H]3COC(=O)[C@H]23)OCO4)cc(OC)c1OC` ?
Resp: 5.54

Req: Data request, read-out pIC50, for COc1cc([C@@H]2c3cc4c(cc3[C@@H](O[C@@H]3O[C@@H]5CO[C@@H](C)O[C@H]5[C@H](O)[C@H]3O)[C@H]3COC(=O)[C@H]23)OCO4)cc(OC)c1O [ETOPOSIDE]
Resp: 5.22

This collection of values is drawn from ChEMBL document CHEMBL6074649.
